Cited source for all entries: PubChem BioAssay

// reported z-score per item
Test: viability profiling in RPMI8226 myeloma cells – cell-based, resazurin fluorescence, basal, 24 h, PK04 Diversity Set, profiling panel (AID 1180);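 further: RPMI8826 multiple myeloma cell line at 5000 cells per well; test concentration not given here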
Conditions: higher = more signal
Could you keep your reply to the number by itself?

**Q:** Dear colleague, please send me the reported z-score for CCCc1cc2c(n1CCc1ccc(Cl)cc1)C(C)C1CN(C(=O)c3ccccc3)C(C)(C(=O)OC)C21 (centres undefined) when you can.
**A:** -1.98

---

Assay: ATP-based viability of Huh7 replicon cells – cell-based, CellTiter-Glo luminescence, basal, 48 h, cytotoxicity control for HCV replication inhibitor project, primary screen (AID 1143);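 further: Huh7 hepatoma cells carrying a hepatitis C replication reporter with no stimulus; test concentration not given here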
Conditions: higher = more signal, called active from +8 up or from −8 down
// reported z-score per item
Could you keep your reply to the number by itself?

Example results:
compound	z-score
CCCC#C[Si](O[C@H](CC)c1cn(Cc2ccccc2)nn1)(C(C)C)C(C)C	-1.01
C=CCOC(=O)[C@@H]1[C@H]2C(=O)O[C@H](c3ccccc3)[C@H](c3ccccc3)N2[C@H](c2ccc(OCCOC(=O)[C@H]3C[C@H]4C(=O)N5CCC[C@H]5C(=O)N4[C@H]3c3cccc(OCCO)c3)cc2)[C@@]12C(=O)Nc1ccc(I)cc12	0.0351
CCCC=C(CCC)[C@@H](NC(=O)OCC(C)C)c1ccc(C(=O)OC)cc1	-1.07

**Q:** Dear colleague, please send me the reported z-score for C[N+](C)(C)CCCC[C@@H]1NC(=O)[C@H]2C[C@@H](C(=O)NCCCCCNC(=O)CS)[C@@H](c3cccc(OCCO)c3)N2C1=O when you can.
**A:** -0.907

**Q:** Dear colleague, please send me the reported z-score for COCCOC(=O)N1C(=O)[C@@]2(c3cc(C#CCCO)ccc31)[C@H](C(N)=O)[C@H]1C(=O)O[C@H](c3ccccc3)[C@H](c3ccccc3)N1[C@@H]2c1ccccc1OCCO when you can.
**A:** -3.54

---

// reported composite z-score per item
Test system: wheat germ agglutinin (Triticum aestivum), Alexa647-labelled
Experiment: Alexa647-WGA lectin binding to printed small molecules – biochemical, small-molecule microarray, 635/667 nm fluorescence, artefact control for SMM control-protein annotation, profiling panel (AID 1140);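 further: score merges 667 nm feature emission with signal to noise over triplicate slides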
Details: WGA-A647 binding, 635 nm fluorescence, higher = more signal

Example results:
molecule	result
O=C(NC1CC1)[C@@H]1c2ccccc2C(=O)N(Cc2ccc(OC(F)(F)F)cc2)[C@H]1c1ccc(CO)cc1	0.331
OCCCC1=CC(c2ccc(CN3CCCC3)cc2)N(Cc2cccc(OC(F)(F)F)c2)CC1 (stereo unspecified)	-0.227
COc1ccc(C(O)C2C=CC3C(=O)N(c4ccccc4)C(=O)C3N2Nc2ccc([N+](=O)[O-])cc2)c2ccccc12 (stereo unspecified)	1.21

**Q:** Dear colleague, please send me the reported composite z-score for COC(=O)[C@H](Cc1ccc(O)cc1)N[C@@H](/C=C/C1CC1)[C@H](O)Cc1ccccc1 when you can.
**A:** -0.185

**Q:** Dear colleague, please send me the reported composite z-score for C=CCN1C(=O)[C@@]2(O[C@@H](CCn3cc([C@H](O)c4ccccc4)nn3)[C@H]([Si](C)(C)c3ccc(OC)cc3)[C@H]2C)c2cc(N3C(=O)c4cccc5cccc3c45)ccc21 when you can.
**A:** -0.22

**Q:** Dear colleague, please send me the reported composite z-score for [N-]=[N+]=Nc1ccccc1C[C@@]1(C(=O)NCc2ccccc2)N=C(c2ccc(OCCCO)cc2)O[C@@H]1c1ccccc1N=[N+]=[N-] when you can.
**A:** 1.03

---

Target: NADPH oxidase 2 (Homo sapiens) (UniProt P04839)
Sequence (P04839 whole entry, looked up): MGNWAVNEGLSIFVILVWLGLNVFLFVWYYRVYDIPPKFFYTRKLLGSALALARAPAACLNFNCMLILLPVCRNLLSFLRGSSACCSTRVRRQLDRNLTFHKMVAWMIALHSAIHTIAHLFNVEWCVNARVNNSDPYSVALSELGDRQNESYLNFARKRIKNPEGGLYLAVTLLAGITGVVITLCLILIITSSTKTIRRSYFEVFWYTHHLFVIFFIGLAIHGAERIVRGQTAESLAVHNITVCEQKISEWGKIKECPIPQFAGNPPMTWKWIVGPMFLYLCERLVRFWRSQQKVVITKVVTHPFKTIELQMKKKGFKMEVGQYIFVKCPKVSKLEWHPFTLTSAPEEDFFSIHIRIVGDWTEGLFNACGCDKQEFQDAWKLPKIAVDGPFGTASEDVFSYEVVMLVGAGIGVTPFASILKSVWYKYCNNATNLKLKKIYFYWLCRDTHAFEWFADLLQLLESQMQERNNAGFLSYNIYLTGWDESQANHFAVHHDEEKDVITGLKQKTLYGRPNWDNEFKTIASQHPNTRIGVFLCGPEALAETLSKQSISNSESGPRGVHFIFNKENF
Assay: compounds shifting NOX2 Amplex Red fluorescence – cell-based, HEK293-NOX2, PMA-stimulated, NOX inhibitor project, primary screen (AID 1159); further: test concentration not given here
Settings: 45 min, higher = more signal, called active from +8 up or from −8 down
// reported z-score per item
Could you keep your reply to the number by itself?

Example results:
compound	targetOfAssay	z-score
O=C1O[C@H](c2ccccc2)[C@H](c2ccccc2)N2[C@H]1[C@@H](C(=O)O)[C@]1(C(=O)Nc3ccc(C#CCCO)cc31)[C@H]2c1ccc(OCCO)cc1	NADPH oxidase 2 (Homo sapiens) (UniProt P04839)	1.43
C=CCN1Cc2ccccc2[C@H]2OC(c3ccc(OCCCO)cc3)=N[C@@]2(CCS(=O)(=O)c2ccccc2)C1=O	NADPH oxidase 2 (Homo sapiens) (UniProt P04839)	-0.697

**Q:** Dear colleague, please send me the reported z-score for COC(=O)[C@@]1(Cc2ccccc2)[C@H]2c3cc(C(=O)N(C)C)n(CCSC(=N)N)c3C[C@H]2CN1C(=O)c1ccccc1 when you can.
**A:** 0.251

**Q:** Dear colleague, please send me the reported z-score for O=C1N(CCS(=O)(=O)c2ccccc2)c2ccccc2C[C@]12N=C(c1ccc(OCCCO)cc1)O[C@@H]2c1ccccc1 when you can.
**A:** -0.304

**Q:** Dear colleague, please send me the reported z-score for COC(=O)[C@@]1(Cc2ccc(F)cc2)[C@H]2c3cc(C(=O)N(C)C)n(CCc4ccc(O)c(O)c4)c3C[C@H]2CN1C(=O)c1ccccc1 when you can.
**A:** -0.168

**Q:** Dear colleague, please send me the reported z-score for COC(=O)[C@@]1(Cc2ccc(F)cc2)[C@H]2c3cc(C(=O)N4CCCC4)n(Cc4cc(F)cc5c4OCOC5)c3C[C@H]2CN1C(=O)c1ccccc1 when you can.
**A:** -0.332

**Q:** Dear colleague, please send me the reported z-score for CN1C(=O)C2C(C3CC3)C=C3CN(Cc4cccc(Cl)c4)[C@@H]([C@@H](O)Cc4ccccc4)C3C2C1=O (some centres not stated) when you can.
**A:** -0.38

**Q:** Dear colleague, please send me the reported z-score for C=CCN1C(=O)[C@@]2(O[C@@H](CCn3cc([C@H](O)c4ccccc4)nn3)[C@H]([Si](C)(C)c3ccc(OC)cc3)[C@H]2C)c2cc(N3C(=O)c4cccc5cccc3c45)ccc21 when you can.
**A:** 0.962

---

Test: probe aEGFR binding to arrayed compounds – biochemical, biotinylated probe, 635/667 nm fluorescence, primary screen (AID 1097);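 further: probe is a biotinylated anti-EGFR antibody binding compounds printed on slides; score combines fluorescence near 667 nm and signal to noise of each spot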
Details: small-molecule microarray, higher = more signal
// reported composite z-score per item
Could you keep your reply to the number by itself?

Example results:
compound	quantitativeReadout
O=C1C2C=CC(C(O)C3CCCCC3)N(n3cnnc3)C2C(=O)N1Cc1ccccc1 (centres undefined)	0.0201
CCOC(=O)C1=CCC(c2cc3ccccc3[nH]2)N(CCN2CC(C(=O)OCC)=CCC2c2cc3ccccc3[nH]2)C1 (centres undefined)	-0.0084
COc1cc(CO)cc(I)c1O[C@H]1C=C(C(=O)NCCO)C[C@@H]2O[C@H]12	0.0018

--- query ---
**Q:** Dear colleague, please send me the reported composite z-score for CCOC(=O)C[C@H]1[C@H](OC(=O)c2ccccc2-c2ccccc2)[C@@H](NC(=O)C2CCCCC2)c2cc(OCCCO)ccc2N1C(=O)c1ccc2ccccc2n1 when you can.
**A:** 0.0754

---

Experiment: blockers of DNA damage checkpoint Chk1 activation – imaging, HeLa, hydroxyurea, phospho-Chk1 antibody, percent positive cells, primary screen (AID 1186)
Settings: hydroxyurea-induced phospho-Chk1 immunofluorescence imaging, higher = more signal
// reported z-score per item
Could you keep your reply to the number by itself?

Example results:
compound	z-score
COC(=O)[C@]1(Cc2ccccc2)N=C(c2ccc(OCCCO)cc2)O[C@@H]1c1ccccc1CN=[N+]=[N-]	-0.623
CN(C)CCCCNC(=O)[C@H]1C[C@H]2C(=O)NCC(=O)N2[C@H]1c1ccc(O)cc1	-0.15
COc1ccc(C(O)C2C=CC3C(=O)N(C)C(=O)C3N2N(c2ccccc2)c2ccccc2)cc1 (stereo not given)	0.45
COCC(=C=CC[C@H](O)c1ccccc1OCCO)C[C@H](O)COCc1ccccc1	0.141
CC(C)N1C(=O)c2ccccc2[C@@H](C(=O)NCC(F)(F)F)[C@@H]1c1ccc(CO)cc1	0.0626

**Q:** Dear colleague, please send me the reported z-score for O=C(NCc1ccccc1)[C@@H]1c2ccccc2C(=O)N(Cc2cc(C(F)(F)F)cc(C(F)(F)F)c2)[C@H]1c1ccc(CO)cc1 when you can.
**A:** -0.0537

**Q:** Dear colleague, please send me the reported z-score for O=C1O[C@@H](c2ccccc2)[C@@H](c2ccccc2)N2[C@@H](c3ccc(OCCO)cc3)[C@]3(C(=O)Nc4ccc(C#CC5(O)CCCCCC5)cc43)[C@@H](C(=O)O)[C@H]12 when you can.
**A:** -0.167

**Q:** Dear colleague, please send me the reported z-score for O=C1[C@H]2C=C(I)[C@H](C[C@@H]2OCCCCCCO)[C@@]12CO2 when you can.
**A:** -0.116

**Q:** Dear colleague, please send me the reported z-score for C=CCOC(=O)[C@@H]1[C@H]2C(=O)O[C@H](c3ccccc3)[C@H](c3ccccc3)N2[C@H](c2ccc(OCCOC(=O)[C@H]3C[C@H]4C(=O)N5CCC[C@H]5C(=O)N4[C@H]3c3cccc(OCCO)c3)cc2)[C@@]12C(=O)Nc1ccc(I)cc12 when you can.
**A:** -0.479

**Q:** Dear colleague, please send me the reported z-score for O=C(NCCN1CCOCC1)[C@@H]1c2ccccc2C(=O)N(Cc2ccc(OC(F)(F)F)cc2)[C@H]1c1ccc(CO)cc1 when you can.
**A:** 0.0777

**Q:** Dear colleague, please send me the reported z-score for O=C1C2C=CC(C(O)c3cccs3)N(Nc3ccc([N+](=O)[O-])cc3)C2C(=O)N1c1ccccc1 (stereo not given) when you can.
**A:** -0.479

**Q:** Dear colleague, please send me the reported z-score for O=C1C[C@@](C(=O)NC2CC2)(c2ccc([N+](=O)[O-])cc2)[C@@H](c2ccc(CO)cc2)N1C1CCCCC1 when you can.
**A:** -0.544

**Q:** Dear colleague, please send me the reported z-score for CCOC(=O)C[C@H]1[C@H](OC(=O)Cc2ccc3c(c2)OCO3)[C@@H](NC(=O)Cc2ccc(OC)cc2)c2cc(OCCCO)ccc2N1C(=O)Cc1ccc(OC)cc1 when you can.
**A:** -1.33

**Q:** Dear colleague, please send me the reported z-score for CCOC(=O)C1=CC[C@@H](c2ccc(OC)cc2)N(S(=O)(=O)c2ccc(C)cc2)[C@H]1c1ccc(C)cc1 when you can.
**A:** -0.0113

**Q:** Dear colleague, please send me the reported z-score for O=C1N(CCS(=O)(=O)c2ccccc2)c2ccccc2C[C@]12N=C(c1ccc(OCCCO)cc1)O[C@@H]2c1ccccc1 when you can.
**A:** -0.36
